EC50 listing for selected compounds.
Target: fMet-Leu-Phe receptor (Homo sapiens)
Experiment: Biased agonist activity at human FPR1 expressed in FlpIn-CHO cells assessed as intracellular calcium mobilization by Fluo-4-AM dye based fluorescence assay
Type: functional, cell-based
Details: read-out: pEC50 (converted)

Observe how each entry below is paired with its result.
COc1cccc(Cc2cc(C)nn(C(C)C(=O)Nc3ccc(Cl)cc3)c2=O)c1OC (stereo not given)	0.155 µM
COc1ccccc1Cc1cc(C)nn(CC(=O)Nc2ccc(Cl)cc2Cl)c1=O	> 100 µM
Cc1cc(Cc2cccc(F)c2)c(=O)n(C(C)C(=O)Nc2ccc(Br)cc2)n1 (stereo not given)	> 100 µM
COc1ccccc1Cc1cc(C)nn(CC(=O)Nc2cccc(C#N)c2)c1=O	> 100 µM

Now look at this one.
Query: Which measured EC50 belongs to COc1ccc(Cc2cc(C)nn(C(C)C(=O)Nc3ccc(Br)cc3)c2=O)cc1 (stereo not given) , tested on fMet-Leu-Phe receptor (Homo sapiens)?
Result: > 100 µM

====

Target: fMet-Leu-Phe receptor (Homo sapiens, UniProt P21462)
Test: Biased agonist activity at human FPR1 expressed in FlpIn-CHO cells assessed as intracellular calcium mobilization by Fluo-4-AM dye based fluorescence assay
Format: functional, cell-based
Details: read-out: pEC50 (converted)
Reported EC50 values for a set of compounds

COc1cccc(Cc2cc(C)nn(CC(=O)Nc3c(F)cc(Cl)cc3F)c2=O)c1	> 100 µM

Query: Kindly state the measured EC50 obtained for Cc1cc(Cc2ccc(F)cc2)c(=O)n(CC(=O)Nc2ccc(Br)cc2[N+](=O)[O-])n1 with fMet-Leu-Phe receptor (Homo sapiens, UniProt P21462).
Result: > 100 µM

Query: Find EC50 (fMet-Leu-Phe receptor (Homo sapiens, UniProt P21462)) for the entry CCCC(C(=O)Nc1ccc(Cl)cc1)n1nc(C)cc(Cc2ccccc2OC)c1=O (stereo not given)
Result: 9.77 µM

Query: So what EC50 did Cc1cc(Cc2ccc(F)cc2)c(=O)n(CC(=O)Nc2c(F)cc(F)cc2[N+](=O)[O-])n1 get with fMet-Leu-Phe receptor (Homo sapiens, UniProt P21462)?
Result: > 100 µM

Query: Lab request: please report EC50 under test system fMet-Leu-Phe receptor (Homo sapiens, UniProt P21462) for COc1cccc(Cc2cc(C)nn(CC(=O)Nc3ccc(Cl)cc3)c2=O)c1OC
Result: 0.224 µM

====

Assay: Intrinsic clearance in mouse liver microsomes assessed per mg protein
Assay type: ADME, Microsome
Conditions: read-out: CLH
reported.endpoint: microsomal CLint (µL/min/mg)
The figure you give is taken to be in µL/min/mg; do not add the unit.

Query: # microsomal CLint lookup, item CCCCC(C(=O)Nc1ccc(Cl)cc1)n1nc(C)cc(Cc2ccccc2OC)c1=O (stereo unspecified)
Result: 233

====

Target: fMet-Leu-Phe receptor (Homo sapiens)
Assay: Biased agonist activity at human FPR1 expressed in FlpIn-CHO cells assessed as intracellular calcium mobilization by Fluo-4-AM dye based fluorescence assay
Assay type: functional, cell-based
Conditions: read-out: pEC50 (converted)
Some compounds, each annotated with its measured EC50.

Completed entries (count: 5):
COc1cccc(Cc2cc(C)nn(C(C)C(=O)Nc3ccccc3F)c2=O)c1 (stereo not drawn)	> 100 µM
COc1ccccc1Cc1cc(C)nn(CC(=O)Nc2ccc(C#N)cc2)c1=O	> 100 µM
COc1ccccc1Cc1cc(C)nn(CC(=O)Nc2c(F)cc(Cl)cc2F)c1=O	> 100 µM
COc1ccccc1Cc1cc(C)nn(C(C(=O)Nc2ccc(Cl)cc2)C(C)C)c1=O (stereo not drawn)	> 100 µM
Cc1cc(Cc2ccc(F)cc2)c(=O)n(C(C)C(=O)Nc2ccc(Br)cc2)n1 (stereo not drawn)	> 100 µM

Query: Any idea what its EC50 is? The compound is COc1ccccc1Cc1cc(C(F)(F)F)nn(CC(=O)Nc2ccc(Cl)cc2)c1=O
Result: > 100 µM

Query: For the compound Cc1cc(Cc2ccccc2F)c(=O)n(C(C)C(=O)Nc2ccc(Br)cc2)n1 (stereo not drawn) , what EC50 is on record?
Result: > 100 µM

Query: What measured EC50 goes with COc1ccccc1Cc1cc(C)nn(C(C)C(=O)Nc2ccc(Cl)cc2)c1=O (stereo not drawn) ?
Result: 17.4 µM

Query: May I ask what EC50 has been recorded for COc1ccccc1Cc1cc(C)nn(CC(=O)Nc2ccccc2Cl)c1=O ?
Result: > 100 µM

Query: Give its EC50 value. Item: CCCCC(C(=O)Nc1ccc(Br)cc1)n1nc(C)cc(Cc2ccccc2OC)c1=O (stereo not drawn)
Result: > 100 µM

Query: What value of EC50 has been recorded for this entry: COc1ccc(NC(=O)Cn2nc(C)cc(Cc3ccccc3OC)c2=O)cc1
Result: > 100 µM

Query: Which EC50 is listed for COc1cccc(OC)c1Cc1cc(C)nn(CC(=O)Nc2ccc(Cl)cc2)c1=O ?
Result: 2.82 µM

====

Target: UniProtKB P25090
Sequence (P25090 whole entry): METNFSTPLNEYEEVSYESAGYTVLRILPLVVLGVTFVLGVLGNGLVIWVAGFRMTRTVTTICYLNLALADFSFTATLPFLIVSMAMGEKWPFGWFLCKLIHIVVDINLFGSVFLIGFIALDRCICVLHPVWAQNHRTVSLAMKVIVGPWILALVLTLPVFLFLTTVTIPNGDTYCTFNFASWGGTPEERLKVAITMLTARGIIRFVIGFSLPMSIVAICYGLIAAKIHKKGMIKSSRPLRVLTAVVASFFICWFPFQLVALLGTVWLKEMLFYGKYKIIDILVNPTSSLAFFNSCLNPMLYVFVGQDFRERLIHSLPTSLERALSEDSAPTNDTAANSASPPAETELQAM
Experiment: Biased agonist activity at human FPR2 expressed in FlpIn-CHO cells assessed as stimulation of ERK1/2 phosphorylation measured after 7 mins by Alphascreen assay
Format: cell-based
reported.endpoint: EC50 (nM)

CCCCC(C(=O)Nc1ccc(Cl)cc1)n1nc(C)cc(Cc2cccc(OC)c2OC)c1=O (stereo not drawn)	61.7

(I) CCCCC(C(=O)Nc1ccc(Cl)cc1)n1nc(C)cc(Cc2ccccc2OC)c1=O (stereo not drawn)
(II) COc1cccc(Cc2cc(C)nn(C(C)C(=O)Nc3ccc(Cl)cc3)c2=O)c1 (stereo not drawn)
Query: Kindly identify which of I and II has the larger recorded EC50 value. // return label of chosen record
Result: II

====

Target: fMet-Leu-Phe receptor (Homo sapiens, UniProt P21462)
Sequence (P21462 whole entry): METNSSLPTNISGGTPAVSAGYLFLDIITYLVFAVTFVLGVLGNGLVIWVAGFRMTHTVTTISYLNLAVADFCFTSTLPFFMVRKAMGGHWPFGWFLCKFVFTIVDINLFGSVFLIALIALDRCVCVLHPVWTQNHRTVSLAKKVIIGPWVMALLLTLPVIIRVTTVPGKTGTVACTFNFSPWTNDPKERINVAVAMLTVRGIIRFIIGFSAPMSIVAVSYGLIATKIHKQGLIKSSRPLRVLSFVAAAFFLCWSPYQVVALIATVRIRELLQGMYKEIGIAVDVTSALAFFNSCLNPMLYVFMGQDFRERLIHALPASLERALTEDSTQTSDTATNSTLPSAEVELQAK
Test: Biased agonist activity at human FPR1 expressed in FlpIn-CHO cells assessed as stimulation of ERK1/2 phosphorylation measured after 7 mins by Alphascreen assay
Format: cell-based
Details: read-out: pEC50 (converted)
reported.endpoint: EC50 (µM)

Here are 4 molecules together with their reported answers.
CCCCC(C(=O)Nc1ccc(Br)cc1)n1nc(C)cc(Cc2ccccc2OC)c1=O (stereo not given)	0.331
CCCC(C(=O)Nc1ccc(Cl)cc1)n1nc(C)cc(Cc2ccccc2OC)c1=O (stereo not given)	6.31
CCCCC(C(=O)Nc1ccc(Br)cc1)n1nc(C)cc(Cc2cccc(OC)c2OC)c1=O (stereo not given)	0.245
CCC(C(=O)Nc1ccc(Cl)cc1)n1nc(C)cc(Cc2ccccc2OC)c1=O (stereo not given)	1.86

(A) COc1cccc(Cc2cc(C)nn(CC(=O)Nc3ccc(Cl)cc3F)c2=O)c1
(B) CCCCC(C(=O)Nc1ccc(Cl)cc1)n1nc(C)cc(Cc2cccc(OC)c2)c1=O (stereo not given)
Query: Between item A and item B , which reported EC50 is smaller? Kindly state the label of the option you pick.
Result: B
(B: 0.126 µM, A: 5.62 µM)

====

Molecular target: N-formyl peptide receptor 2 (Homo sapiens)
Assay: Biased agonist activity at human FPR2 expressed in FlpIn-CHO cells assessed as intracellular calcium mobilization by Fluo-4-AM dye based fluorescence assay
Format: functional, cell-based
pEC50: −log10 of the molar value.
reported.endpoint: pEC50

CCCCC(C(=O)Nc1ccc(Cl)cc1)n1nc(C)cc(Cc2cccc(OC)c2OC)c1=O (stereo not drawn)	7.28
CCCCC(C(=O)Nc1ccc(Cl)cc1)n1nc(C)cc(Cc2ccccc2OC)c1=O (stereo not drawn)	7.29

The measured values listed here are drawn from ChEMBL document CHEMBL4350966.
